Cited source: BindingDB's records for doi:10.1021/bi035098j

- target_under_test: Tyrosine-protein phosphatase non-receptor type 2 (Homo sapiens)
- Sequence (P17706 whole entry): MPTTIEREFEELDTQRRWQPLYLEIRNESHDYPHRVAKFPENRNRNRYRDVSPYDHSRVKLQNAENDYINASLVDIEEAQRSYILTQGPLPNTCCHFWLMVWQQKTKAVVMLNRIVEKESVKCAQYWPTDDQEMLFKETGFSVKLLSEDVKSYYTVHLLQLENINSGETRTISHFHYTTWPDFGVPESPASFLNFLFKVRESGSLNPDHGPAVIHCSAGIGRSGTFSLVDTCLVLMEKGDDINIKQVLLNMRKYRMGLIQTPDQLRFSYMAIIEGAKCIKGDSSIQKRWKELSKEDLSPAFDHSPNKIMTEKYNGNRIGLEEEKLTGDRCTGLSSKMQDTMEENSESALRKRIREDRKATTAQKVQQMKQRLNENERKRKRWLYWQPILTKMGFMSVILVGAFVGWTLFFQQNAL
- assay_remarks: PTP1B and TCPTP Inhibition Assay
- details: pH 6.3; 22 °C
property_label: pIC50
Keep it numeric: pIC50 is minus log10 of the concentration in mol/L.

(Q) Input O=P(O)(O)C(F)(F)c1ccc(CC(Cc2ccc(-c3ccccc3)cc2)(c2ccccc2)n2nnc3ccccc32)cc1 (stereo not drawn) , output reported pIC50.
(A) 7.62

(Q) // Input: CC(C)CCOc1ccc(-c2ccc(CC(Cc3ccc(C(F)(F)P(=O)(O)O)cc3)(c3ccccc3)n3nnc4ccccc43)cc2)cc1P(=O)(O)O (stereo not drawn) . Output its pIC50 only.
(A) 7.70

(Q) Input COc1ccc(-c2ccc(CC(Cc3ccc(C(F)(F)P(=O)(O)O)cc3)(c3ccccc3)n3nnc4ccccc43)cc2)cc1P(=O)(O)O (stereo not drawn) , output reported pIC50.
(A) 7.51

(Q) // Input: COCOC(CC(C)C)c1ccc2cc(-c3ccc(CC(Cc4ccc(C(F)(F)P(=O)(O)O)cc4)(c4ccccc4)n4nnc5ccccc54)cc3)cc(P(=O)(O)O)c2n1 (stereo not drawn) . Output its pIC50 only.
(A) 7.68

(Q) Please report pIC50 for the following compound: CC(C)CC(O)c1ccc2cc(-c3ccc(CC(Cc4ccc(C(F)(F)P(=O)(O)O)cc4)(c4ccccc4)n4nnc5ccccc54)cc3)cc(P(=O)(O)O)c2n1 (stereo not drawn)
(A) 7.77

(Q) Provide pIC50 value for the following compound: COC(CC(C)C)c1ccc2cc(-c3ccc(CC(Cc4ccc(C(F)(F)P(=O)(O)O)cc4)(c4ccccc4)n4nnc5ccccc54)cc3)cc(P(=O)(O)O)c2n1 (stereo not drawn)
(A) 7.44

(Q) Identify measured pIC50 associated with O=P(O)(O)C(F)(F)c1ccc(CC(Cc2ccc(C(F)(F)P(=O)(O)O)cc2)(c2ccccc2)n2nnc3ccccc32)cc1
(A) 7.96

(Q) Recall and state the measured pIC50 for Cc1ccc2cc(-c3ccc(CC(Cc4ccc(C(F)(F)P(=O)(O)O)cc4)(c4ccccc4)n4nnc5ccccc54)cc3)cc(P(=O)(O)O)c2n1 (stereo not drawn) .
(A) 7.70
